- testedOn: T1, AS325 VHH (camel-derived)
- T1 construct: One of the 10 different camel-derived nanobodies; not shown: His tag (VHH-His)
- assayText: indirect ELISA, VHH coated
- Description: […]
endpointLabel: binding result

INSERT INTO measurements (binder, endpointlabel, valueobserved) VALUES
  ('R166.A5 (antibody, V domains shown, Rabbit monoclonal; also called clone R166.A5; antibody clone R166.A5) VH: QSVEESGGRLVTPGTPLTLTCTVSGFSLNNYTVIWVRQAPGKGLEWIGIIFGSGGTYYATWAEGRFTISRTSTTVDLKMTSPTTEDTATYFCARGYFGNTFWAMDPWGPGTLVTVSS VL: NIVMTQTPASVSGAVGGTVTIKCQASQSISTYLSWYQQKPGQPPKLLIYQASELAYGVSSRFKGSGSGTEFTLTISGVECADAATYYCQQGYSDINVDNFFGGGTEVVVKG', 'binding result', 'binds'),
  ('R166.D1 (antibody, V domains shown, Rabbit monoclonal; also called clone R166.D1) VH: QSVEESGGRLVKPDESLTLTCTVSGFSLSNYDMIWVRQAPGKGLEWIGVIYPTGTTYYANWVKGRFTISKTSTTVGLLITSPTTEDTATYFCARKPILYVDSSGWYIDLWGQGTLVTVSS VL: AYDMTQTPSSVSAAVGGTVSIKCQASENINNYLSWYQQKPGQPPKLLIYQASRLASAVPSRFKGSGSGTQFTLTIDDLECADAATYYCQQGHSVSNDVGNVFGGGTEVVVKG', 'binding result', 'binds'),
  ('R166.G2 (antibody, V domains shown, Rabbit monoclonal; also called clone R166.G2) VH: QSLEESGGRLVKPDETLTITCTVSGIDLSSDAMSWVRQAPGKGLEWIGLINRYGNTYYASWAKGRFTISKTSTTVDLKVTSLTTEDTATYFCARYGTDSDFYFLDLWGQGTLVTVSS VL: DIVMTQTPASVSEPVGGTVTIKCQASQSIYSYLSWYQQKPGQRPKLLIYKASKLVSGVPSRFRGSGSGTEFTLTISDLECADAASYYCQSDWLISSNGNTFGGGTEVVVTG', 'binding result', 'binds');
